Taken from patent US10787413B2.

Tested on: HCT-116 colon cancer cell
experiment: MTT cell viability assay, HCT-116 colon cancer cell
Format: cell-based
setup conditions: Homo sapiens; HCT-116, treated 48 hours; read-out: IC50 48 hours
Experimental: Cell viability was evaluated by measuring the reduction in MTT to yield blue formazan. Cells were cultured in 96-well plates, allowed to attach overnight, and then treated with compounds. After treatment, MTT solution (1 mg/ml) was added to each well, and plates were incubated for another 4 h. Medium were removed, blue formazan was dissolved in DMSO, and the absorbance was read at 570 nm^20.
experimental readout: log10(IC50) (log10 of the value in µM)
All values: log10 IC50 [µM].

// worked examples, log10(IC50) included
COc1cc(/C=C/C(=O)C(CO)(CO)C(=O)/C=C/c2ccc(OC(=O)C(C)(CO)CO)c(OC)c2)ccc1OC(=O)C(C)(CO)CO : 1.84
CC(CO)(CO)C(=O)Oc1ccc(/C=C/C(=O)/C=C(O)/C=C/c2ccc(OC(=O)C(C)(CO)CO)cc2)cc1 [Compound 23a] : 0.94

For the compound CCC(CO)(CO)C(=O)Oc1ccc(/C=C/C(=O)/C=C(O)/C=C/c2ccc(O)c(OC)c2)cc1OC [Compound 22b] , the measured log10(IC50) on HCT-116 colon cancer cell was 1.09

For the compound `COc1ccc(/C=C/C(=O)C(COC(C)=O)(COC(C)=O)C(=O)/C=C/c2ccc(OC)c(OC)c2)cc1OC` , the measured log10(IC50) on HCT-116 colon cancer cell was 0.56

For the compound `CCOc1cc(/C=C/C(=O)/C=C(O)/C=C/c2ccc(OC(=O)C(C)(CO)CO)c(OCC)c2)ccc1OC(=O)C(C)(CO)CO` , the measured log10(IC50) on HCT-116 colon cancer cell was 0.63

For the compound `CCOc1cc(/C=C/C(=O)/C=C(O)/C=C/c2ccc(OC(=O)C(CC)(CO)CO)c(OCC)c2)ccc1OC(=O)C(CC)(CO)CO` , the measured log10(IC50) on HCT-116 colon cancer cell was 0.50
